Value source: PubChem BioAssay AID248

Tested on: L1210 leukemia ip in BDF1 mice, survival T/C
Test: NCI In Vivo Anticancer Drug Screen. Data for tumor model L1210 Leukemia (intraperitoneal) in B6D2F1 (BDF1) mice
Conditions: endpoint: mean survival time; dose: 400.0 mg/kg/injection; schedule: Q01DX001 (ip); vehicle: saline; higher = longer survival
Toxic doses and inconclusive results are not listed.
readout_type: T/C

Here is how some molecules turned out for T/C.
{"columns": ["molecule", "target", "observed_result"],
 "data": [
  ["CN1CCN(C)P1N1CCCC1", "L1210 leukemia ip in BDF1 mice, survival T/C", "93 % of control"],
  ["O=C(O)C1=C(C(=O)Nc2cccc3cccnc23)C2C=CC1O2 (stereo not drawn)", "L1210 leukemia ip in BDF1 mice, survival T/C", "95 % of control"]
]}

Field request: T/C | item: `Cc1coc(NS(=O)(=O)c2ccc(N=Nc3c(N)[nH]c(=O)[nH]c3=O)cc2)c1C`
104 % of control
